# Test system: Yap1 mRNA
# EXPERIMENT_SUMMARY: Dose-dependent inhibition of human Yap1 in A-431 cells (Example 7, 10,000 cells per well, RTS36584)
# Assay type: cell-based
# CONDITION_INFO: Table 60, 62.5 nM, free uptake, A-431 cells 10,000 cells per well, 48 hours
# Protocol: Modified oligonucleotides described in the studies above were tested at various doses in A-431 cells. […] After approximately 48 hours, Yap1 mRNA levels were measured as previously described using the Human Yap1 primer-probe set RTS36584. Yap1 mRNA levels were normalized to total RNA content, as measured by RIBOGREEN®. […] IC50s were calculated using a linear regression on a log/linear plot of the data in excel.
Strand notation (5' to 3'): a small letter for the sugar, then the base; units joined by * are phosphorothioate-linked, units joined directly phosphodiester-linked; [ ] holds rarer units or linkages, { } end groups; capitals alone tell only the bases. k = constrained ethyl (cEt); [5mC] = 5-methylcytosine; d = 2'-deoxy (DNA)
Would you mind telling me the reported Yap1 mRNA, % UTC of each entry?
Numbers only, in % UTC.

958593 (kG*kG*kT*d[5mC]*dA*dG*dT*dA*d[5mC]*dA*dG*dA*dG*kG*kG*k[5mC]; antisense) [compound 958593] ... 60
958813 (kT*kT*kA*d[5mC]*dA*dG*dA*dG*dA*dG*dA*dT*dT*k[5mC]*kA*kT; antisense) [compound 958813] ... 79
958543 (kA*k[5mC]*k[5mC]*dT*dT*dA*dT*dA*dG*dT*dA*dT*dT*k[5mC]*kT*kA; antisense) [compound 958543] ... 63
958538 (kA*kT*k[5mC]*d[5mC]*dA*dG*dG*dG*dT*d[5mC]*dA*dA*dT*kT*kT*kT; antisense) [compound 958538] ... 77
958508 (kG*kA*kG*dA*dG*d[5mC]*dA*dG*dA*dT*dA*dA*dT*k[5mC]*kG*kA; antisense) [compound 958508] ... 64

Reported Yap1 mRNA, % UTC ( 958473 (kG*kT*k[5mC]*dT*d[5mC]*d[5mC]*dT*dT*dA*dG*dA*dT*d[5mC]*k[5mC]*kT*kT; antisense) [compound 958473] ) = 60
